- Experiment: AUC in dog at 1 mg/kg, po
- Assay type: ADME, organism-based, Canis lupus familiaris
- Design: dose 1 mg/kg, route oral
- Measurement parameters: plasma
Property label: AUC (ng·h/mL)
Numbers only, in ng·h/mL.

INPUT: For Cc1cccc(C(=O)NCN2CCC(c3cccc[n+]3[O-])CC2)c1 , write its AUC.
OUTPUT: 4280

---

- Experiment: Cmax in rat at 1 mg/kg, po
- Type: ADME, organism-based
- Parameters: dose 1 mg/kg, route oral
- Measurement parameters: in vivo
Property label: Cmax
Could you kindly put the unit after your number?

INPUT: For Cc1cccc(C(=O)NCN2CCC(c3cccc[n+]3[O-])CC2)c1 , write its Cmax.
OUTPUT: 417 ng/mL
